Biological target: rat brain adenylyl cyclase
Experiment: inhibition of rat brain adenylyl cyclase
Format: biochemical
Settings: 100 μM 5′ATP, 5 mM MnCl2, 100 μM forskolin; determined graphically; read-out: IC50, Rat Brain Adenylyl Cyclase
Experimental: Adenylyl cyclase activities were determined as previously described, with a reaction mixture containing 100 μM 5′ATP, 5 mM MnCl2, and 100 μM forskolin. IC50 values were determined graphically.
Reported IC50 values for the following molecules.
experimental-readout: IC50 (µM)

In [3]: df
Out[3]:
                                   molecule  value_reported
0  CC1OC(n2cnc3c(N)ncnc32)CC1OP1(=O)OCc2ccccc2O1 (centres unmarked)               7
1  Cc1cccc2c1OP(=O)(OC1CC(n3cnc4c(N)ncnc43)OC1C)OC2 (centres unmarked)               7

----------
System: adenylyl cyclase of Ob1771 cell membranes
Assay: inhibition of adenylyl cyclase of Ob1771 cell membranes
Assay type: biochemical
Details: 100 μM 5′ATP, 5 mM MnCl2, 100 μM forskolin; determined graphically
Reported IC50 values for the following compounds.
experimental-readout: IC50 (µM)

>>> df
                                   compound  experimental_readout  value_reported
0  Cc1cccc2c1OP(=O)(OC1CC(n3cnc4c(N)ncnc43)OC1C)OC2 (centres unmarked) [Compound 11]                  IC50              60
1  CC1OC(n2cnc3c(N)ncnc32)CC1OP1(=O)OCc2ccccc2O1 (centres unmarked) [Compound 10]                  IC50              30

----------
Test system: isoproterenol-stimulated, cAMP/PKA-dependent Cl− channel of cardiac ventricular myocytes
Experiment: block of isoproterenol-stimulated Cl- channel in cardiac ventricular myocytes
Type: cell-based
Settings: not shown, read-out: IC50 for block of Cl− channel function
pIC50: −log10 of the molar value.
experimental-readout: pIC50

>>> df
                            compound_string  value_reported
0  C[C@H]1O[C@@H](n2cnc3c(N)ncnc32)C[C@@H]1OP(=O)(OCCSC(=O)C(C)(C)C)OCCSC(=O)C(C)(C)C           ~7.09
